TGT: 5-HT2C (Homo sapiens)
Construct: host or cells: HEK293
ASSAY_OVERVIEW: FLIPR Ca2+ flux functional assay, 5-HT2C (HEK293)
Format: cell-based
ASSAY_CONTEXT: HEK293, agonist activity, HEK293 cells expressing 5-HT2C
EXPERIMENTAL_ENDPOINT: Emax (%)
Give bare numbers, in %.

A selection of reference data follows.
INSERT INTO measurements (test_smiles, quantitative_result) VALUES
  ('CN(C)CCc1n[nH]c2cccc(F)c12', 48),
  ('CCN(C)CCc1n[nH]c2ccc(OC)c(F)c12', 68),
  ('CCCN(CCC)CCc1n[nH]c2ccc(OC)cc12', -0.46);

Ask: # return recorded Emax for entry "COc1ccccc1CNCCc1n[nH]c2cccc(F)c12"
Reply: 84

###

TGT: 5-HT2B (Homo sapiens, UniProt P41595)
Construct: host or cells: CHO-K1
Sequence (P41595 whole entry, species assumed): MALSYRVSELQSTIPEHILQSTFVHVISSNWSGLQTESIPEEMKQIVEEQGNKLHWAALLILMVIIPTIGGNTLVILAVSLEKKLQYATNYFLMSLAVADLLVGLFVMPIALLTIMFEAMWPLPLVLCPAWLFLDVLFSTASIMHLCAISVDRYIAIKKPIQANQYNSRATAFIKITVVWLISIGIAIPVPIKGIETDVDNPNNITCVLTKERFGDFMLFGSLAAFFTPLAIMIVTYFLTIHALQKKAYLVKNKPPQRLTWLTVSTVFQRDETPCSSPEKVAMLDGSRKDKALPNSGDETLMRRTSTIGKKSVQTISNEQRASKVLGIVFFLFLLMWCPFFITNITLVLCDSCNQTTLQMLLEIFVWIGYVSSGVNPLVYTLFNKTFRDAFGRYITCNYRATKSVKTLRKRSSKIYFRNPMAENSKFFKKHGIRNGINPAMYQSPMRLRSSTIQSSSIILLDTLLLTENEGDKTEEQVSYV
ASSAY_OVERVIEW: Activation in a similar Ca2+ flux assay at a single concentration, 5-HT2B
Assay type: cell-based
ASSAY_CONTEXT: head prints 10 µM
Can you tell me 5-HT2B % Activation @ 10 µM for the items I'm about to list?
Give bare numbers, in %.

Please review the following examples before continuing.
INSERT INTO measurements (compound, unit_descriptor, quantitative_result) VALUES
  ('CN(CCc1n[nH]c2ccc(F)cc12)C1CC1 [Example A20]', '%', 1),
  ('COc1ccc(F)c2[nH]nc(CCN(C)C(C)C)c12 [Example A46]', '%', 0),
  ('CCN(C)CCc1n[nH]c2c(F)ccc(OC)c12 [Example A45]', '%', 0);

List reported 5-HT2B % Activation @ 10 µM for each of these compounds:
1. COc1cc2c(CCN3CC(C)C3)n[nH]c2cc1F [Example A57]
2. COc1cc(F)cc2[nH]nc(CCN3CCC4CC43)c12 (centres unmarked) [Example A43]
3. CCN(C)CCc1n[nH]c2c(F)cccc12 [Example A68]
4. COc1cc(F)cc2[nH]nc(CCN(C)C(C)C)c12 [Example A40]
5. CCN(C)CCc1n[nH]c2c(F)cc(OC)cc12 [Example A51]

Reply:
[0, 102, 0, 0, 1]

###

TGT: 5-HT2B (Homo sapiens, UniProt P41595)
Construct: host or cells: CHO-K1
ASSAY_OVERVIEW: Activation in a similar Ca2+ flux assay at a single concentration, 5-HT2B
Type: cell-based
ASSAY_CONTEXT: head prints 10 µM
EXPERIMENTAL_ENDPOINT: 5-HT2B % Activation @ 10 µM (%)
Give bare numbers, in %.

Reference set, count: 2
INSERT INTO assay_data (test_smiles, quantitative_result) VALUES
  ('COc1ccc2[nH]nc(CCNCc3cccc(F)c3)c2c1', 1),
  ('CC(C)N(C)CCc1n[nH]c2ccc(F)cc12', 1);

As a next step, examine the compound that follows.
Ask: Answer with the recorded 5-HT2B % Activation @ 10 µM of "CN(C)CCc1n[nH]c2c(F)cc(F)cc12" only.
Reply: 1

###

TGT: 5-HT2A (Homo sapiens, UniProt P28223)
Sequence (P28223 whole entry): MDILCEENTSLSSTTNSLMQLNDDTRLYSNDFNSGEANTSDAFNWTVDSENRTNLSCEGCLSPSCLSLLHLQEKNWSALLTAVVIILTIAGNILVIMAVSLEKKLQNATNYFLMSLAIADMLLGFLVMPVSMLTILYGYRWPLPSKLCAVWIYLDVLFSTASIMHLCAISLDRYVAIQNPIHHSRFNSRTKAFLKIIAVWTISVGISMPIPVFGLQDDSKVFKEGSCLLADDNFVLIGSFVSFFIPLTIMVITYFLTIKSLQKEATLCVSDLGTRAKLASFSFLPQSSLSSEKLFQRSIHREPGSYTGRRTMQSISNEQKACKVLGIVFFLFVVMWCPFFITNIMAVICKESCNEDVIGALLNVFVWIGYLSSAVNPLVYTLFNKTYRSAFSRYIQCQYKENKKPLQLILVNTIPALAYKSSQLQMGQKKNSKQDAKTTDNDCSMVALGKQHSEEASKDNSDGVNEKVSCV
ASSAY_OVERVIEW: FLIPR Ca2+ flux functional assay, 5-HT2A (HEK293)
ASSAY_CONTEXT: agonist activity, HEK293 cells expressing 5-HT2A
Can you tell me pEC50 for the items I'm about to list?
Give bare numbers, as −log10 of the molar value.

INSERT INTO results (molecule, quantitative_result) VALUES
  ('COc1ccc2[nH]nc(CCNCc3cccc(F)c3)c2c1 [Example A65]', 7.04),
  ('COc1ccc(F)c2[nH]nc(CCN3CCC3)c12 [Example A47]', 6.98),
  ('COc1cc2c(CCN(C)C(C)C)n[nH]c2cc1F [Example A7]', 6.50),
  ('COc1cc2c(CCN3CCC4CC43)n[nH]c2cc1F (stereo not drawn) [Example A60]', 8.09),
  ('CCN(C)CCc1n[nH]c2c(F)ccc(OC)c12 [Example A45]', 6.79);

Batch request: pEC50 for each of the following molecules.
1. CN(C)CCc1n[nH]c2c(F)cc(F)cc12 [Example A35]
2. CCN(C)CCc1n[nH]c2cc(F)c(OC)cc12 [Example A6]
3. COc1ccc2[nH]nc(CCNCc3ccccc3OC)c2c1 [Example A63]
4. CN(C)CCc1n[nH]c2ccc(F)cc12 [Example A17]
5. COc1cc(F)c2[nH]nc(CCN(C)C(C)C)c2c1 [Example A52]
6. COc1ccc(F)c2[nH]nc(CCN(C)C(C)C)c12 [Example A46]

Reply:
1. 6.67
2. 6.96
3. 8.65
4. 6.78
5. 6.19
6. 6.88

Give pEC50 for each of the items listed below.
1. COc1ccc2[nH]nc(CCN(C)C)c2c1F [Example A9]
2. Fc1ccc2[nH]nc(CCN3CCCC3)c2c1F [Example A73]
3. CN(C)CCc1n[nH]c2ccc(F)c(F)c12 [Example A69]
4. COc1c(F)ccc2[nH]nc(CCN(C)C(C)C)c12 [Example A3]

Reply:
[6.09, 6.11, 6.56, 7.02]

###

TGT: 5-HT2C (Homo sapiens, UniProt P28335)
Construct: host or cells: HEK293
Sequence (P28335 33-458, species assumed): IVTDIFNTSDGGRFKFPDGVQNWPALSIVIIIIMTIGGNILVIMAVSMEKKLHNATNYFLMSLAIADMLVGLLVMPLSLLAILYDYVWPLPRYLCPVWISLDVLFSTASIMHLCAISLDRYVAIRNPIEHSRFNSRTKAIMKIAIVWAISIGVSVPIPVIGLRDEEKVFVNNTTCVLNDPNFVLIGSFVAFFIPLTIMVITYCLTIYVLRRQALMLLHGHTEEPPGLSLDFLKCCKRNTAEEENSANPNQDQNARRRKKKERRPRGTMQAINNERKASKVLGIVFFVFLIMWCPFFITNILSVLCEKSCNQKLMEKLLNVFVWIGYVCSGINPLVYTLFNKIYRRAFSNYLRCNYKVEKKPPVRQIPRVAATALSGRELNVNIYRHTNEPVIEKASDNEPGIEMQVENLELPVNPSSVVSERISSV
ASSAY_OVERVIEW: FLIPR Ca2+ flux functional assay, 5-HT2C (HEK293)
Assay type: cell-based
ASSAY_CONTEXT: HEK293, agonist activity, HEK293 cells expressing 5-HT2C
Would you mind telling me the reported Emax of each entry?
Numbers only, in %.

Known Emax results, listed for orientation:
INSERT INTO measurements (compound, tgt, experimental_endpoint, quantitative_result) VALUES
  ('COc1cc2c(CCN3CCC3)n[nH]c2cc1F [Example A56]', '5-HT2C (Homo sapiens, UniProt P28335)', 'Emax', 50),
  ('COc1c(F)ccc2[nH]nc(CCN(C)C3CC3)c12 [Example A4]', '5-HT2C (Homo sapiens, UniProt P28335)', 'Emax', 91),
  ('COc1cc2c(CCN(C)C3CC3)n[nH]c2cc1F [Example A8]', '5-HT2C (Homo sapiens, UniProt P28335)', 'Emax', 102);

Okay, next one:
Ask: Supply reported Emax belonging to this compound: CN(CCc1n[nH]c2ccc(F)cc12)C1CC1 [Example A20]
Reply: 83

###

TGT: 5-HT2A (Homo sapiens, UniProt P28223)
Construct: host or cells: HEK293
ASSAY_OVERVIEW: FLIPR Ca2+ flux functional assay, 5-HT2A (HEK293)
Assay type: cell-based
ASSAY_CONTEXT: HEK293, agonist activity, HEK293 cells expressing 5-HT2A
EXPERIMENTAL_ENDPOINT: Emax
# answer = value followed by unit

Worked set:
INSERT INTO results (molecule, tgt, experimental_endpoint, result) VALUES
  ('CCN(C)CCc1n[nH]c2c(F)cccc12', '5-HT2A (Homo sapiens, UniProt P28223)', 'Emax', '40%'),
  ('CCN(C)CCc1n[nH]c2ccc(F)cc12', '5-HT2A (Homo sapiens, UniProt P28223)', 'Emax', '55%'),
  ('CC(C)N(C)CCc1n[nH]c2ccc(F)cc12', '5-HT2A (Homo sapiens, UniProt P28223)', 'Emax', '25%'),
  ('CCN(C)CCc1n[nH]c2cc(F)cc(F)c12', '5-HT2A (Homo sapiens, UniProt P28223)', 'Emax', '33%'),
  ('COc1cccc2[nH]nc(CCN(C)C)c12', '5-HT2A (Homo sapiens, UniProt P28223)', 'Emax', '58.7%'),
  ('COc1ccc(F)c2[nH]nc(CCN3CCC4CC43)c12 (stereo not shown)', '5-HT2A (Homo sapiens, UniProt P28223)', 'Emax', '69%'),
  ('COc1cc(F)cc2[nH]nc(CCN3CCC4CC43)c12 (stereo not shown)', '5-HT2A (Homo sapiens, UniProt P28223)', 'Emax', '89%'),
  ('COc1cc(F)cc2[nH]nc(CCN(C)C)c12', '5-HT2A (Homo sapiens, UniProt P28223)', 'Emax', '77%');

I need Emax for every entry listed below, if you could help.
1. CN(C)CCc1n[nH]c2ccc(F)c(F)c12
2. CN(C)CCc1n[nH]c2cccc(O)c12
3. COc1ccc2[nH]nc(CCN(C)C(C)C)c2c1F
4. COc1ccc2[nH]nc(CCNCc3ccccc3OC)c2c1
5. CC(C)N(C)CCc1n[nH]c2c(F)cc(F)cc12
6. COc1ccc2[nH]nc(CCN(C)C(C)C)c2c1
7. COc1cc(F)cc2[nH]nc(CCN3CCC3)c12

Reply:
1: 79%; 2: 66.4%; 3: 64%; 4: 92%; 5: 57%; 6: 77.3%; 7: 78%

Provide Emax values for the following items, in order.
1. COc1ccc2[nH]nc(CCNCc3ccccc3F)c2c1
2. CCCN(CCC)CCc1n[nH]c2ccc(OC)cc12
3. COc1ccc(F)c2[nH]nc(CCN(C)C(C)C)c12
4. CCN(CC)CCc1n[nH]c2cccc(O)c12

Reply:
1. 79%
2. 67.6%
3. 74%
4. 38.9%

Dear reader, for each entry below, please note its Emax.
1. CCN(CC)CCc1n[nH]c2cccc(OC)c12
2. CCN(C)CCc1n[nH]c2ccc(OC)cc12
3. COc1cc2c(CCN(C)C(C)C)n[nH]c2cc1F
4. COc1ccccc1CNCCc1n[nH]c2cccc(F)c12
5. COc1cc2c(CCN3CCC4CC43)n[nH]c2cc1F (stereo not shown)

Reply:
1. 68.8%
2. 79.1%
3. 63%
4. 86%
5. 92%

Ask: Give Emax for "COc1cc(F)c2[nH]nc(CCN3CCCC3)c2c1"
Reply: 75%
